Provide the reported Ki of each item.
experimental system: Cannabinoid receptor 1 (Homo sapiens)
Sequence (P21554 whole entry): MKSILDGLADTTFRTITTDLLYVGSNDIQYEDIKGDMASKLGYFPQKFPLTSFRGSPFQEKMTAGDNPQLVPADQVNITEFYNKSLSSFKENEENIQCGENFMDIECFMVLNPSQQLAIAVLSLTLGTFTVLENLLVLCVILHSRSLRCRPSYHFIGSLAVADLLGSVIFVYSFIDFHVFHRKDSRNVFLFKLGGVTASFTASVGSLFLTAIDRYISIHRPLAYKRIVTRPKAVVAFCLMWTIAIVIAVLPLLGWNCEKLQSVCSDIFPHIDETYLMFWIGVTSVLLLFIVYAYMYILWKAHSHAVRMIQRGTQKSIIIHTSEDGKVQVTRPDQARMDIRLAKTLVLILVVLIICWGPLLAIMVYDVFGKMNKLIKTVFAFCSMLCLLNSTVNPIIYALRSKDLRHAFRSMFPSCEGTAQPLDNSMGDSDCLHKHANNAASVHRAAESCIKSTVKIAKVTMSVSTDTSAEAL
assay details: Displacement of [3H]CP-55940 from human recombinant CB1 receptor expressed in HEK cells
Type: cell-based, HEK293
settings: read-out: Log Ki (converted)

Hi! Can you tell me Ki for each of these molecules?
1. CC1(C)C(C(=O)c2cn(CC3CCOCC3)c3ccc(N)cc23)C1(C)C
2. CC1(C)C(C(=O)c2cn(CC3CCOCC3)c3cc(O)ccc23)C1(C)C
3. CC1(C)C(C(=O)c2cn(CCN3CCOCC3)c3cccc(N)c23)C1(C)C
4. CC(=O)Nc1cccc2c1c(C(=O)C1C(C)(C)C1(C)C)cn2CCN1CCOCC1
5. COc1ccc2c(c1)c(C(=O)C1C(C)(C)C1(C)C)cn2CCN1CCOCC1

["> 1 µM", "> 3.02 µM", "> 3.47 µM", "> 2.19 µM", "> 3.47 µM"]
